meta.source: patent US4873236A

# Tested System: muscarinic receptors of the atrium (Cavia porcellus, UniProt H0VRN8)
# Construct: In the isolated, spontaneously beating right atrium; from tissue; host or cells: isolated right atrium of guinea pig
# Sequence (H0VRN8 1-466): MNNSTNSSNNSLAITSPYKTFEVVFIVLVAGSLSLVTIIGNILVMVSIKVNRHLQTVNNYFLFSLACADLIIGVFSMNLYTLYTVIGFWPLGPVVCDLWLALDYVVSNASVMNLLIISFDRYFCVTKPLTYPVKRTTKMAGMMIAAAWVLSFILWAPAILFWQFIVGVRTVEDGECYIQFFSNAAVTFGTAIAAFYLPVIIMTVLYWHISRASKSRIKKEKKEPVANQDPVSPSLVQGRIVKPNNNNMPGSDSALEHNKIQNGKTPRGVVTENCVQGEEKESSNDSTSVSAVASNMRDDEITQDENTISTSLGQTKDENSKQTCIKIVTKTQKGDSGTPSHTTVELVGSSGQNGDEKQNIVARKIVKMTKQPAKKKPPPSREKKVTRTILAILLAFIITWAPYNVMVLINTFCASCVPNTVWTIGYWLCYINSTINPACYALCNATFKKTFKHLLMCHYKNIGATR
# Experimental Details: Dissociation constants (KB) on spontaneously beating right atrium, methacholine antagonism
# Parameters: species or system guinea pig
# Experimental Setup: guinea pig spontaneously beating atrium, methacholine, 30 min contact; read-out: KB Heart (dissociation constant)
Outcome Measure: Kb (nM)

a = CCN(CC)CC1CCCCN1CCNC(=O)N1c2ccccc2NC(=O)c2csc(C)c21 (stereo not shown) [Substance B]
b = CCCN(CCC)CC1CCCCN1CCNC(=O)N1c2ccccc2C(=O)Nc2cccnc21 (stereo not shown) [Substance A]
IN: For the pair a and b , which member has the lower Kb number? Returns: label corresponding to the selected item.
OUT: a
(a: 0.24 nM, b: 2.45 nM)
